- Assay target: T1, human B7-H1 expressed on cells (human, UniProt Q9NZQ7 19-290)
- T1 construct: whole, on cells; also called PD-L1; huB7-H1
- T1 sequence (Q9NZQ7 19-290): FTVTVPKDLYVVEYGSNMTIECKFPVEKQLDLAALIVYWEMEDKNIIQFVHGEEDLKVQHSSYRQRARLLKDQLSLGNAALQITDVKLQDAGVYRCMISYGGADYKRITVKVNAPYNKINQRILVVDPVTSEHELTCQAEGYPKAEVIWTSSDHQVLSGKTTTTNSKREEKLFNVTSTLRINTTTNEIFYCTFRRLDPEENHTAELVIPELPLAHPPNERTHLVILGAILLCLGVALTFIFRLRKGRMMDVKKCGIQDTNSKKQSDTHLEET
- Experiment description: cell ELISA: biotinylated PD-1/Fc (1.25 ug/ml) on CHO-huB7-H1 cells after hybridoma supernatant (1:5); 0% = 100% inhibition
Parameter measured: PD1-Fc binding to CHO-huB7-H1 cells (% of max)

Answered cases to consult:
3.15G8 (antibody, IgG4, V domains shown, also called mAb 3.15G8) VH: EVQLVESGGGLVQPGGSLRLSCAASGFTFSSYWMSWVRQAPGKGLEWVANIKQDGGEKYYVDSVKGRFTISRDNAKNSLFLQMNSLRAEDTAVYYCARVQLYSDYFDYWGQGTLVTVSS VL: DIQMTQSPSSVSASVGDRVTITCRASQGISSWLAWYQQKSGKAPKLLIYAASGLQSGVPSRFSGSGSGTDFTLTISSLQPEDLATYYCQQSHSLPPTFGQGTKVEIK : 4 % of max
2.7A4 (antibody, IgG2, V domains shown, also called mAb 2.7A4) VH: EVQLVESGGGLVKPGGSLRLSCAASGFTFSTYSMNWVRQAPGKGLEWVSSISSSGDYIYYADSVKGRFTISRDNAKNSLFLQMNSLKAEDTAVYYCARDLVTSMVAFDYWGQGTLVTVSS VL: SYELTQPPSVSVSPGQAARITCSGDALPQKYVFWYQQKSGQAPVLVIYEDSKRPSGIPERFSGSSSGTMATLTISGAQVEDEADYYCYSTDRSGNHRVFGGGTRLTVL : 0 % of max
2.20A8 (antibody, IgG2, V domains shown, also called mAb 2.20A8) VH: EVQLLESGGGLVQPGGSLRLSCAASGFTFSNYAMSWVRQAPGKGLEWVSAIRGSGGSTYYADSVKGRFTISRDNSKNTLYLQMNSLRAEDTAVYYCAKDLHYDSSGYLDYWGQGTLVTVSS VL: DIQMTQSPSSVSASVGDRVTITCRASQGIRSWLAWYQQKPGKAPKLLIYAISRLQSGVPSRFSGSGSGTDFTLTISSLQPEDFATYYCQQANSFPLTFGGGTKVEIK : 0 % of max
3.18G1 (antibody, V domains shown, also called mAb 3.18G1) VH: EVQLLESGGDLVQPGGSLRLSCAASGFTFNSYAMSWVRQAPGKGLEWVSTISGSGGFTFSADSVKGRFTISRDNSKNTLFLQMNSLRVEDSAVYSCAKVLVGFNNGCWDYWGQGTLVTVSS VL: SYVLTQPPSVSVAPGQTARITCGGNNIGSKSVHWYQQKPGQAPVLVVYDDSDRPSGIPERFSGSNSGNTATLTISRVEAGDEADYYCQVWDSSNDHVVFGGGTKLTVL : 5 % of max

Query: PD1-Fc binding to CHO-huB7-H1 cells (% of max) for 2.9D10 (antibody, V domains shown, Tested as hybridoma supernatant or purified antibody; also called mAb 2.9D10) VH: EVQLVESGGGLVQPGGSLRLSCAASGFTFSSYWMSWVRQAPGKGLEWVANIKQDGGEQYYVDSVKGRFTISRDNAKNSLYLQMNSLRAEDTAVYYCARDWNYGYYDMDVWGQGTTVTVSS VL: EIVLTQSPGTLSLSPGERATLSCRASQSVSSNYLAWFQQKPGQAPRLLIFGTSSRATGIPDRFSGSGSGTDFTLTISRLEPEDFAVYYCQQYGSSIFTFGPGTKVDIK ?
Response: -5 % of max
